Ref: ChEMBL document CHEMBL3352485

Kindly state Ki for each of the entries shown.
Assay target: KiSS-1 receptor (Rattus norvegicus)
Sequence (Q924U1 whole entry): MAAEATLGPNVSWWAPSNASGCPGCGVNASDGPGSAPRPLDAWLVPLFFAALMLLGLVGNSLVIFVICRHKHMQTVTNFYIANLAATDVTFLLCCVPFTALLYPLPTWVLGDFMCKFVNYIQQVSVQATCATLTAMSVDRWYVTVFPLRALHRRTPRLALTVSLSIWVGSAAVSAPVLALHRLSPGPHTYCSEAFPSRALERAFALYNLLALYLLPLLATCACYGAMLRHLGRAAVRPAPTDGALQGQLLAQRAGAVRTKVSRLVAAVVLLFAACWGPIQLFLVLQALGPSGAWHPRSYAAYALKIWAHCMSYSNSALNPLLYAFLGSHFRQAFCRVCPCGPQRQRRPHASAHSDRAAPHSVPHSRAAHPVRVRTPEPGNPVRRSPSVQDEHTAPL
Assay protocol: Displacement of radioligand from rat KISS1R transfected in CHO cells
Where a SMILES comes first, the peptide text is derived from it. [ ]: non-standard residue; d: D form. Arg(Me) = CNC(=N)NCCC[C@H](N)C(=O)O; azaGly = NNC(=O)O
Report the value in pM with no unit label.

Ask: Identify measured Ki associated with CNC(=N)NCCC[C@H](NC(=O)[C@H](CC(C)C)NC(=O)NNC(=O)[C@H](Cc1ccccc1)NC(=O)[C@@H](NC(=O)[C@H](CC(N)=O)NC(=O)[C@@H](Cc1c[nH]c2ccccc12)NC(=O)[C@@H](Cc1ccc(O)cc1)NC(=O)C1CC1)[C@@H](C)O)C(=O)N[C@@H](Cc1c[nH]c2ccccc12)C(N)=O
Reply: 87

Ask: Identify measured Ki associated with CNC(=N)NCCC[C@H](NC(=O)[C@H](CC(C)C)NC(=O)NNC(=O)[C@H](Cc1ccccc1)NC(=O)[C@H](CO)NC(=O)[C@H](CC(N)=O)NC(=O)[C@@H](Cc1ccncc1)NC(=O)[C@H](N)Cc1ccc(O)cc1)C(=O)N[C@@H](Cc1c[nH]c2ccccc12)C(N)=O
Reply: 130

Ask: Identify measured Ki associated with CNC(=N)NCCC[C@H](NC(=O)[C@H](CC(C)C)NC(=O)NNC(=O)[C@H](Cc1ccccc1)NC(=O)[C@@H](NC(=O)[C@H](CC(N)=O)NC(=O)[C@@H](Cc1c[nH]c2ccccc12)NC(=O)[C@@H](Cc1ccc(O)cc1)NC(C)=O)[C@@H](C)O)C(=O)N[C@@H](Cc1ccccc1)C(N)=O
Reply: 87

Ask: Identify measured Ki associated with CCCC(=O)N[C@H](Cc1ccc(O)cc1)C(=O)N[C@H](Cc1c[nH]c2ccccc12)C(=O)N[C@@H](CC(N)=O)C(=O)N[C@H](C(=O)N[C@@H](Cc1ccccc1)C(=O)NNC(=O)N[C@@H](CC(C)C)C(=O)N[C@@H](CCCNC(=N)NC)C(=O)N[C@@H](Cc1c[nH]c2ccccc12)C(N)=O)[C@@H](C)O
Reply: 110

Ask: Identify measured Ki associated with CNC(=N)NCCC[C@H](NC(=O)[C@H](CC(C)C)NC(=O)NNC(=O)[C@H](Cc1ccccc1)NC(=O)[C@@H](NC(=O)[C@H](CC(N)=O)NC(=O)[C@@H](Cc1c[nH]c2ccccc12)NC(=O)[C@@H](Cc1ccc(O)cc1)NC(C)=O)[C@@H](C)O)C(=O)N[C@@H](Cc1c[nH]c2ccccc12)C(N)=O (Ac-[dY][dW]NTF[azaGly]L[Arg(Me)]W-NH2)
Reply: 69

Ask: Identify measured Ki associated with CC[C@H](NC(=O)[C@@H](Cc1c[nH]c2ccccc12)NC(=O)[C@H](N)Cc1ccc(O)cc1)C(=O)N[C@@H](CO)C(=O)N[C@@H](Cc1ccccc1)C(=O)NNC(=O)N[C@@H](CC(C)C)C(=O)N[C@@H](CCCNC(=N)NC)C(=O)N[C@@H](Cc1c[nH]c2ccccc12)C(N)=O
Reply: 830

* * *

Kindly state remaining at 336 h for each of the entries shown.
Assay protocol: Stability of the compound in aqueous solution assessed as residual ratio at pH 5 up to 2 weeks by HPLC analysis relative to initial level
Type: physicochemical
Where a SMILES comes first, the peptide text is derived from it. [ ]: non-standard residue; d: D form. Arg(Me) = CNC(=N)NCCC[C@H](N)C(=O)O; azaGly = NNC(=O)O
Report the value in % with no unit label.

Ask: Identify measured remaining at 336 h associated with CNC(=N)NCCC[C@H](NC(=O)[C@H](CC(C)C)NC(=O)NNC(=O)[C@H](Cc1ccccc1)NC(=O)[C@@H](NC(=O)[C@H](CC(N)=O)NC(=O)[C@@H](Cc1c[nH]c2ccccc12)NC(=O)[C@@H](Cc1ccc(O)cc1)NC(C)=O)[C@@H](C)O)C(=O)N[C@@H](Cc1c[nH]c2ccccc12)C(N)=O (Ac-[dY][dW]NTF[azaGly]L[Arg(Me)]W-NH2)
Reply: 93.6

Ask: Identify measured remaining at 336 h associated with CNC(=N)NCCC[C@H](NC(=O)[C@H](CC(C)C)NC(=O)NNC(=O)[C@H](Cc1ccccc1)NC(=O)[C@@H](NC(=O)[C@H](CC(N)=O)NC(=O)[C@@H](Cc1c[nH]c2ccccc12)NC(=O)[C@H](N)Cc1ccc(O)cc1)[C@@H](C)O)C(=O)N[C@@H](Cc1c[nH]c2ccccc12)C(N)=O
Reply: 96.5

Ask: Identify measured remaining at 336 h associated with CNC(=N)NCCC[C@H](NC(=O)[C@H](CC(C)C)NC(=O)NNC(=O)[C@H](Cc1ccccc1)NC(=O)[C@@H](NC(=O)[C@H](CC(N)=O)NC(=O)[C@@H](Cc1ccncc1)NC(=O)[C@@H](Cc1ccc(O)cc1)NC(C)=O)[C@@H](C)O)C(=O)N[C@@H](Cc1c[nH]c2ccccc12)C(N)=O
Reply: 97

Ask: Identify measured remaining at 336 h associated with CNC(=N)NCCC[C@H](NC(=O)[C@H](CC(C)C)NC(=O)NNC(=O)[C@H](Cc1ccccc1)NC(=O)[C@H](CO)NC(=O)[C@H](CC(N)=O)NC(=O)[C@@H](Cc1c[nH]c2ccccc12)NC(=O)[C@H](N)Cc1ccc(O)cc1)C(=O)N[C@@H](Cc1c[nH]c2ccccc12)C(N)=O
Reply: 90.8

* * *

Assay protocol: Stability of the compound in aqueous solution assessed as residual ratio at pH 5 up to 1 week by HPLC analysis relative to initial level
Type: physicochemical
Where a SMILES comes first, the peptide text is derived from it. [ ]: non-standard residue; d: D form. Arg(Me) = CNC(=N)NCCC[C@H](N)C(=O)O; d4Pal = N[C@H](Cc1ccncc1)C(=O)O; azaGly = NNC(=O)O
Kindly state remaining at 168 h for each of the entries shown.
Report the value in % with no unit label.

Ask: Identify measured remaining at 168 h associated with CNC(=N)NCCC[C@H](NC(=O)[C@H](CC(C)C)NC(=O)NNC(=O)[C@H](Cc1ccccc1)NC(=O)[C@H](CO)NC(=O)[C@H](CC(N)=O)NC(=O)[C@@H](Cc1ccncc1)NC(=O)[C@H](N)Cc1ccc(O)cc1)C(=O)N[C@@H](Cc1ccccc1)C(N)=O [KISS1-305] (H-[dY][d4Pal]NSF[azaGly]L[Arg(Me)]F-NH2)
Reply: 94.8

Ask: Identify measured remaining at 168 h associated with CNC(=N)NCCC[C@H](NC(=O)[C@H](CC(C)C)NC(=O)NNC(=O)[C@H](Cc1ccccc1)NC(=O)[C@@H](NC(=O)[C@H](CC(N)=O)NC(=O)[C@@H](Cc1c[nH]c2ccccc12)NC(=O)[C@@H](Cc1ccc(O)cc1)NC(C)=O)[C@@H](C)O)C(=O)N[C@@H](Cc1ccccc1)C(N)=O
Reply: 98.1

Ask: Identify measured remaining at 168 h associated with CNC(=N)NCCC[C@H](NC(=O)[C@H](CC(C)C)NC(=O)NNC(=O)[C@H](Cc1ccccc1)NC(=O)[C@H](CO)NC(=O)[C@H](CC(N)=O)NC(=O)[C@@H](Cc1c[nH]c2ccccc12)NC(=O)[C@H](N)Cc1ccc(O)cc1)C(=O)N[C@@H](Cc1c[nH]c2ccccc12)C(N)=O
Reply: 96

Ask: Identify measured remaining at 168 h associated with CNC(=N)NCCC[C@H](NC(=O)[C@H](CC(C)C)NC(=O)NNC(=O)[C@H](Cc1ccccc1)NC(=O)[C@@H](NC(=O)[C@H](CC(N)=O)NC(=O)[C@@H](Cc1c[nH]c2ccccc12)NC(=O)[C@@H](Cc1ccc(O)cc1)NC(C)=O)[C@@H](C)O)C(=O)N[C@@H](Cc1c[nH]c2ccccc12)C(N)=O (Ac-[dY][dW]NTF[azaGly]L[Arg(Me)]W-NH2)
Reply: 95.9

Ask: Identify measured remaining at 168 h associated with CNC(=N)NCCC[C@H](NC(=O)[C@H](CC(C)C)NC(=O)NNC(=O)[C@H](Cc1ccccc1)NC(=O)[C@@H](NC(=O)[C@H](CC(N)=O)NC(=O)[C@@H](Cc1c[nH]c2ccccc12)NC(=O)[C@H](N)Cc1ccc(O)cc1)[C@@H](C)O)C(=O)N[C@@H](Cc1c[nH]c2ccccc12)C(N)=O
Reply: 98.8

Ask: Identify measured remaining at 168 h associated with CNC(=N)NCCC[C@H](NC(=O)[C@H](CC(C)C)NC(=O)NNC(=O)[C@H](Cc1ccccc1)NC(=O)[C@@H](NC(=O)[C@H](CC(N)=O)NC(=O)[C@@H](Cc1ccncc1)NC(=O)[C@@H](Cc1ccc(O)cc1)NC(C)=O)[C@@H](C)O)C(=O)N[C@@H](Cc1c[nH]c2ccccc12)C(N)=O
Reply: 98.5
